- Target Or Test System: T1, “Λ” Fab scaffold (4D5 scaffold with SEELQANK in the Lc region)
- T1 construct: also called “Lambda” Fab scaffold
- T1 sequence (light, as listed by the source): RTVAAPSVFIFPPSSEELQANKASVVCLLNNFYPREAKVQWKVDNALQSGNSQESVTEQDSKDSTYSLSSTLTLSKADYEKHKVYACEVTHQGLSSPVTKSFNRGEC
- Assay Remarks: SPR (preliminary results), Protein G variant against Fab scaffold
Endpoint: pKd
One number for each entry, as −log10 of the molar value.

Quick check: pKd of Protein G F (designed binder, also called pGF; F 38YAFGNG43) TPAVTTYKLVINGRTLSGYTTTTAVDAATAEKVFKQYAFGNGVDGEWTYDDATKTFTVTEKPEKL ?
7.30
